These entries and their values trace back to ChEMBL document CHEMBL1201862.

Tested on: SF-268
method: NCI tumour cell line growth inhibition, 48 h
Active and inactive are the calls of the source. No stated cut-off is given here; in the data, active = GI50 up to about 1.1 µM and inactive = higher.
Thanks in advance; please answer with one of these: TRUE (active), FALSE (inactive)

Solved cases (5 shown):
COc1cc([C@@H]2c3cc4c(cc3[C@@H](NC(=O)c3cccc([N+](=O)[O-])c3)C3COC(=O)[C@@H]32)OCO4)cc(OC)c1O (stereo not given in full) | TRUE
CSC1CC2C(CC1(C)O)C2(C)C (stereo not given) | FALSE
CC(=O)c1cccc2c1CC1(C2)Cc2ccc3c(c2C1=O)CCC3 (stereo not given) | FALSE
COC(=O)C(=O)C(C(=O)C(=O)Nc1cccc(C(C)=O)c1)c1nc2ccccc2nc1O (stereo not given) | FALSE
O=c1[nH]cnc2sc(=S)c3c(c12)CCC3 | FALSE

Just curious, what result did Cn1cnc([N+](=O)[O-])c1SCC(=O)O get here?
FALSE

Just curious, what result did O=C(O)/C(Cl)=C(/Cl)C(=O)Nc1cccc(Cl)c1 get here?
FALSE

Just curious, what result did CC(=O)N(C(=O)CC(=O)N1N=C(C)C(/N=N/c2cccc([N+](=O)[O-])c2)C1=O)c1ccc(Cl)cc1 (stereo not given) get here?
FALSE

Just curious, what result did O=S(O)c1cc(Cl)cc(Cl)c1O get here?
FALSE

Just curious, what result did CC1=NN(C(=O)CC(=O)NC(=O)/C=C\c2ccccc2)C(=O)C1/N=N/c1ccc([N+](=O)[O-])cc1 (stereo not given) get here?
FALSE
